# TESTED_SYSTEM: Tg_CA (Toxoplasma gondii, UniProt S8F479)
# Construct: gene TGME49_259950; alpha-CA domain, residues 487-830 of an 861-residue protein; E. coli BL21(DE3) codon-plus; about 47 kDa
# Sequence (S8F479 487-830): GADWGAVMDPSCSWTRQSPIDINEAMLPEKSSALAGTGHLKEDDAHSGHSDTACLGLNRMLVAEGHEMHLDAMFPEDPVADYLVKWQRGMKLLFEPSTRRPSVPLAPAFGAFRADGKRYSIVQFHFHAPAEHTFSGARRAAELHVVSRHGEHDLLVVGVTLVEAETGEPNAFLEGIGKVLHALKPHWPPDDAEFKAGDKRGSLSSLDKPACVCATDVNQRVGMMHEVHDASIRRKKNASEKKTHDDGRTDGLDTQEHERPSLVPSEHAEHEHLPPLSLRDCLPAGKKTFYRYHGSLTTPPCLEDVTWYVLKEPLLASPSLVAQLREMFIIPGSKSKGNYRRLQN
# RUN_DESCRIPTION: stopped-flow CO2 hydration, phenol red, Cheng-Prusoff
# Type: biochemical
Decide using Ki alone. Strictly below 80 nM: 1.0. Equal to or above 80 nM: 0.0.

COMPOUND	ASSIGNED_LABEL
Cc1ccc(-c2cc(C(F)(F)F)nn2-c2ccc(S(N)(=O)=O)cc2)cc1 [CLX, Celecoxib]	0.0
Cc1ccc(S(N)(=O)=O)cc1 [compound 4]	0.0
Nc1nccc(Nc2ccc(S(N)(=O)=O)cc2)n1 [compound 19]	1.0
NS(=O)(=O)c1ccc(S(=O)(=O)Nc2cccc3c(Cl)c[nH]c23)cc1 [IND, Indisulam]	0.0
Nc1ccc(S(=O)(=O)Nc2ccc(S(N)(=O)=O)cc2)cc1 [compound 22]	0.0
NS(=O)(=O)c1ccc(O)cc1 [compound 15]	1.0
NS(=O)(=O)c1ccc(CCNS(=O)(=O)c2ccc([N+](=O)[O-])cc2CO)cc1 [compound 21]	0.0

* * *

# TESTED_SYSTEM: Tg_CA (Toxoplasma gondii, UniProt S8F479)
# Construct: gene TGME49_259950; alpha-CA domain, residues 487-830 of an 861-residue protein; E. coli BL21(DE3) codon-plus; about 47 kDa
# RUN_DESCRIPTION: stopped-flow CO2 hydration, phenol red, Cheng-Prusoff
# Format: biochemical

COMPOUND	Ki [nM]
CCN[C@H]1CN(CCCOC)S(=O)(=O)c2sc(S(N)(=O)=O)cc21 [BRZ, Brinzolamide]	77.8
Nc1ccc(S(=O)(=O)Nc2nnc(S(N)(=O)=O)s2)cc1	17.8
NS(=O)(=O)c1cc(Cl)cc(Cl)c1O	578
Nc1nnc(S(N)(=O)=O)s1	57.5
NCc1ccc(S(N)(=O)=O)cc1	739
NS(=O)(=O)c1ccc(CCO)cc1	263
NS(=O)(=O)c1ccc(CO)cc1	91.6
Cc1onc(-c2ccccc2)c1-c1ccc(S(N)(=O)=O)cc1	426
NS(=O)(=O)c1ccc(C(=O)O)cc1	85.3
Cn1nc(S(N)(=O)=O)sc1=N	61
Nc1ccc(S(=O)(=O)NCc2ccc(S(N)(=O)=O)cc2)cc1	93.4
NS(=O)(=O)c1nnc(NS(=O)(=O)c2ccccc2)s1 [BZA, Benzolamide]	62.1
Nc1cc(C(F)(F)F)c(S(N)(=O)=O)cc1S(N)(=O)=O	65.1
NS(=O)(=O)c1cc2c(cc1Cl)NCNS2(=O)=O [HCT, Hydrochlorothiazide]	839
O=C1NS(=O)(=O)c2ccccc21	8450
NS(=O)(=O)c1cc(Cl)c(Cl)c(S(N)(=O)=O)c1 [DCP, Dichlorphenamide]	77.5
Nc1ccc(S(=O)(=O)NCCc2ccc(S(N)(=O)=O)cc2)cc1	204
CC1(C)O[C@@H]2[C@@H](CO[C@@]3(COS(N)(=O)=O)OC(C)(C)O[C@@H]23)O1 [TPM, Topiramate]	720
Nc1cc(Cl)c(S(N)(=O)=O)cc1S(N)(=O)=O	73.8
CC(=O)N=c1sc(S(N)(=O)=O)nn1C [MZA, Methazolamide]	24.7
NS(=O)(=O)Cc1noc2ccccc12 [ZNS, Zonisamide]	912

Attribution: paper PMC11719606
